biological target: recombinant human 5HT6 receptor (Homo sapiens); construct: purchased Receptor Biology; host or cells: HEK-293; assay: Binding to the 5HT6 serotonin receptor ([3H]-LSD, HEK-293 cell membranes); details: table 1e, compounds of general formula (Ie)
Sequence (P50406 whole entry): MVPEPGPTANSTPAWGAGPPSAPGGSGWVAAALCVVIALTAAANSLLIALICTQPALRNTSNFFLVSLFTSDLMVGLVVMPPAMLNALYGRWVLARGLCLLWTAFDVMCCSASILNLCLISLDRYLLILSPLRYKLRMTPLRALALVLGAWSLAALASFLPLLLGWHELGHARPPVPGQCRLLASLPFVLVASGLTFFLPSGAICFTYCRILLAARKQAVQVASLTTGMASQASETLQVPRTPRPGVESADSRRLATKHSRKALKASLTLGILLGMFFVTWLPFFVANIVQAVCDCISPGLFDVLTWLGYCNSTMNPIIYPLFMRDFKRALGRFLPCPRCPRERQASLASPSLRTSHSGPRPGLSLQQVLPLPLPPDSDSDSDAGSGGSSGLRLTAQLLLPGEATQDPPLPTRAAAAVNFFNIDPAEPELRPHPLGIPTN
reported property: Ki (nM)
Express it in nM; write the number only.

Query: // query Ki value for entry CN(C)CCn1ccc2cc(NS(=O)(=O)c3cc(Cl)c(Cl)s3)ccc21 [Example 20e]
Result: 84.8

Query: Do the same for CN(C)CCn1ccc2cc(NS(=O)(=O)c3cc(Cl)cc(Cl)c3)ccc21 [Example 12e] please
Result: 105

Query: Do the same for CN(C)CCn1ccc2cc(NS(=O)(=O)c3cccc(Br)c3)ccc21 [Example 13e] please
Result: 82.5

Measured values drawn from patent US20070009597A1 for this set.
